Each entry below lists one item and its recorded CH4 permeability value.
Expressed in Barrer, but write only the number.

*c1ccc(C(C)(C)c2ccc(-n3c(=O)c4cc5c(=O)n(*)c(=O)c5cc4c3=O)cc2)cc1 (repeat unit) = 0.901
*Oc1ccc(-c2c(-c3ccc(C)cc3)c(-c3ccc(C)cc3)c(-c3ccc4c(c3)Oc3c(C#N)c(*)c(*)c(C#N)c3O4)c(-c3ccc(C)cc3)c2-c2ccc(C)cc2)cc1O* (repeat unit) = 132
*Oc1ccc(S(=O)(=O)c2ccc(Oc3c(C)cc(-c4cc(C)c(*)c(C)c4C)c(C)c3C)cc2)cc1 (repeat unit) = 0.944
*c1cc(C)c(N2C(=O)c3ccc(C(c4ccc5c(c4)C(=O)N(*)C5=O)(C(F)(F)F)C(F)(F)F)cc3C2=O)c(C)c1 (repeat unit) = 0.349
*c1cccc(N2C(=O)c3ccc(C(=O)c4ccc5c(c4)C(=O)N(*)C5=O)cc3C2=O)c1 (repeat unit) = 0.0086

Okay, next one:
Qu. Endpoint output: CH4 permeability of *Oc1cc2c(cc1O*)C1(c3cc(C)ccc3-2)c2cc(C)ccc2-c2cc3c(cc21)Oc1c(C#N)c(*)c(*)c(C#N)c1O3 (repeat unit) . Value?
Ans. 582
